// values below are reported growth
system: T-47D breast; assay: NCI-60 one-dose screen, 48 h (100 = growth as untreated, 0 = no growth, -100 = all killed); settings: 10 µM unless noted
About 83,000 compounds went through this panel and 20% of them were active in at least one assay; those are over-represented in the sample as a whole.
experimental-readout: growth (%)

compound	experimental-readout	experimental-value
CC(=O)n1nc(C(=O)OC(C)(C)c2ccccc2)c2ccccc21	growth	86.3
COCCOc1cc2ncnc(N3CCN(c4cc(S(C)(=O)=O)c(C)cc4Cl)CC3)c2cc1OCCOC	growth	69.6
COc1cc(-c2nccc3[nH]c(-c4ccc5cc[nH]c5c4)nc23)cc(OC)c1OC	growth	30.5
O=C(Nc1ccc(OS(=O)(=O)c2ccc(F)cc2)cc1)C1CCCCCC1	growth	81.4
CCCCCCCCCc1ccc(OCCOCCOCCOCCOCCOCCOCCOCCOCCO)cc1	growth	116
COc1ccc(\C=N/N=C(N)/C(N)=N\N=C/c2ccc(OC)cc2)cc1	growth	90.3
O=C1NC(=O)C(Cc2ccc(OCc3ccc(-c4ccc(Cl)cc4Cl)cc3)cc2)S1 (stereo not given)	growth	16.1
NC(=O)c1ccc(-c2c3ccccc3cc3c2ccc2ccccc23)cc1	growth	60.4
O=C1NC2(Nc3ccccc31)C(=O)Nc1c(Cl)cc(Cl)cc12 (stereo not given)	growth	87.9
CSc1nnc(-c2cc3c([nH]c4ccccc43)c(-c3cccc(O)c3)n2)n1-c1ccccc1	growth	44.9
